ASSAYED_TARGET: T1, recombinant human LAG-3-his protein (Novoprotein) (human, UniProt P18627 23-450)
T1 construct: Bought; also called huLAG-3; not shown: His tag
T1 sequence (looked up): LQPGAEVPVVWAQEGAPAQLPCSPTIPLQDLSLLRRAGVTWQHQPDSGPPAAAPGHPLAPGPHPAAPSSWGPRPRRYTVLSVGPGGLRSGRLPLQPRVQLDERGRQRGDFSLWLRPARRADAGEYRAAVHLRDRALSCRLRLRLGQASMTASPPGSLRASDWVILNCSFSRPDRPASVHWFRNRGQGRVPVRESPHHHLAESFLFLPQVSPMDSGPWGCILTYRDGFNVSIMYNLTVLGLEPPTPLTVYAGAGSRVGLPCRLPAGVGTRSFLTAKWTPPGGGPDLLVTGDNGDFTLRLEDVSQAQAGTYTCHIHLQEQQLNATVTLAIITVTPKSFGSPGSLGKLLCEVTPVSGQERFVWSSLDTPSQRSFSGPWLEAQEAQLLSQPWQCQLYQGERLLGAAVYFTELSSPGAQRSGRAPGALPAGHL
ASSAY: BLI Octet, Ab on AHC sensor, huLAG-3-his; test group 3
Description: All 18 humanized antibodies (Table 34) and a chimeric antibody having the parental murine VH and VL domains (mAb747c) were ranked by dissociation rate constant (koff). […] Binding was measured by dipping sensors into a single concentration of recombinant human LAG-3-his protein (Novoprotein). […] The off-rate ratios were calculated by the off-rate of antibody to that of mAb747c of its group and were compared all together. […]
REPORTED_ENDPOINT: off-rate ratio to that of mAb747c
Number first, unit second: that is the form wanted.

- BINDER: "HumAb747-58 (antibody, human IgG1, V domains shown, humanized mAb747; human IgG1/kappa constant domains) VH: EVQLVQSGAEVKKPGATVKLSCTASDFNIKDDYMHWVKQAPGKGLEWIGWIVPENGNTEYASKFQGRATITADTSTNTAYLELSSLRSEDTAVYYCTVYGDYWGQGTTVTVSS VL: DIQMTQSPSSLSASVGDRVTITCRASQEISGYLSWLQQKPGGAIKRLIYAASTLDSGVPSRFSGSRSGSDYTLTISSLEPEDFADYYCLQYASYPLTFGQGTKLELK"
  off-rate ratio to that of mAb747c: "331%"
- BINDER: "mAb747c (antibody, V domains shown, also called mAb717c) VH: EVQLQQSGAELVRPGASVKLSCTASDFNIKDDYMHWVKQRPEQGLDWIGWIVPENGNTEYASKFQGKATITADTSSNTAYLQLSSLTSEDTAVYYCTVYGDYWGQGTTLTVSS VL: DIQMTQSPSSLSASLGERVSLNCRASQEISGYLSWLQQKPDGTIKRLIYAASTLDSGVPKRFSGSRSGSDYSLTISSLESEDFAAYYCLQYASYPLTFGAGTKLELK"
  off-rate ratio to that of mAb747c: "100%"
- BINDER: "HumAb747-57 (antibody, human IgG1, V domains shown, humanized mAb747; human IgG1/kappa constant domains) VH: EVQLVQSGAEVKKPGATVKLSCTASDFNIKDDYMHWVQQAPGKGLEWIGWIVPENGNTEYASKFQGRVTITADTSTDTAYLELSSLRSEDTAVYYCTVYGDYWGQGTTVTVSS VL: DIQMTQSPSSLSASVGDRVTITCRASQEISGYLSWLQQKPGGAIKRLIYAASTLDSGVPSRFSGSRSGSDYTLTISSLEPEDFADYYCLQYASYPLTFGQGTKLELK"
  off-rate ratio to that of mAb747c: "335%"
- BINDER: "HumAb747-56 (antibody, human IgG1, V domains shown, humanized mAb747; human IgG1/kappa constant domains) VH: EVQLVQSGAEVKKPGATVKLSCKASDFNIKDDYMHWVQQAPGKGLEWIGWIVPENGNTEYASKFQGRVTITADTSTDTAYLELSSLRSEDTAVYYCTVYGDYWGQGTTVTVSS VL: DIQMTQSPSSLSASVGDRVTITCRASQEISGYLSWLQQKPGGAIKRLIYAASTLDSGVPSRFSGSRSGSDYTLTISSLEPEDFADYYCLQYASYPLTFGQGTKLELK"
  off-rate ratio to that of mAb747c: "352%"

Please examine the following record next.
Query: # off-rate ratio to that of mAb747c lookup, item HumAb747-55 (antibody, human IgG1, V domains shown, humanized mAb747; human IgG1/kappa constant domains) VH: EVQLVQSGAEVKKPGATVKISCKVSDFNIKDDYMHWVQQAPGKGLEWIGWIVPENGNTEYASKFQGRVTITADTSTDTAYLELSSLRSEDTAVYYCTVYGDYWGQGTTVTVSS VL: DIQMTQSPSSLSASVGDRVTITCRASQEISGYLSWLQQKPGGAIKRLIYAASTLDSGVPSRFSGSRSGSDYTLTISSLEPEDFADYYCLQYASYPLTFGQGTKLELK
Result: 972%

Origin of values: patent US20210188980A1
